Can you tell me apparent KD of MS2 coat protein for the items I'm about to list?
Tested on: MS2 coat protein
Method: apparent KD of MS2 coat protein; higher = weaker reporter binding
Condition parameters: Eterna round: R107; input ligand: theophylline 20 uM
Numbers only, in µM.

Consider the worked cases shown below.
[
  {
    "Sequence entry": "AAUUGGGUUGGUGAGGUGGUUGGAGGCGAUACCAGCGUGGAAACACGCCCUUGGCAGCGCCAGGACAUGAGGAUCACCCAUGUAA [Praha]",
    "apparent KD of MS2 coat protein / µM": 0.486
  },
  {
    "Sequence entry": "CUCUGAGUCCGCAAGGACUCAGAGGCGGAUACCAGCGAGGUCCAUCGCCCUUGGCAGCCGAACAUGAGGAUCACCCAUGUCGGUA [#1 Same State - Theophylline A Attempt #27 (HarryS)]",
    "apparent KD of MS2 coat protein / µM": 0.0145
  },
  {
    "Sequence entry": "GGUGGGACUUGUGAUACCAGCCUAAUUCGAAUCGAAUUGCACAUGAGGAUCACCCAUGUCGGCCCUUGGCAGCAUGAGUAUUUAU [Aagexe]",
    "apparent KD of MS2 coat protein / µM": 0.129
  },
  {
    "Sequence entry": "GUAUGGAAACAUACUAGGGUAUCAUGAGAUACCAGUACAGAAAUGUACCCUUGGCAGCUCUAGCAUACAUGAGGAUCACCCAUGU [Ex Theophylline A 6]",
    "apparent KD of MS2 coat protein / µM": 0.02
  },
  {
    "Sequence entry": "CUGACGGACUCGGCCGCCACUGAUAGUAGGACAUGAGGAUCACCCAUGUAAACGAACCUCAUAGCCAGGACCGGGAGUCACGAAG [Same State Tryptophan B GF 22]",
    "apparent KD of MS2 coat protein / µM": 0.189
  }
]

Q) Provide value of apparent KD of MS2 coat protein for this record tested with MS2 coat protein: AAAAUAAUGGCGGCCGCCACUAACUCAUAUACAUCAUGUACAUGAGGAUCACCCAUGUAGGUGUAUAGGACCGGGCCAUAAUUAA [39MS split4]
A) 0.0222
